# TARGET_OF_ASSAY: Estrogen receptor (Homo sapiens)
# EXPERIMENT_SUMMARY: qHTS assay to identify small molecule antagonists of the estrogen receptor alpha (ER-alpha) signaling pathway (AID 743069)
# MEASUREMENT_CONTEXT: HEK293 ER-alpha-UAS-bla, beta-lactamase ratio, antagonist mode; series mostly up to 69.4 µM
The source made the active and inactive calls. Calls follow the shape of the dose curve; as a rule, active = well fitted curve in the direction sought with a large enough effect in the signal ratio in the repeat runs (not every such curve was filed as active); inconclusive = weak or mixed curves, or effect the other way; inactive = no such curve, though single readings can be large or run the other way; the % refers to the signal ratio.
Pick one and only one: True (active), False (inactive)

Worked set:
MOLECULE	TARGET_OF_ASSAY	QUALITATIVE_LABEL
C=CCC1([C@H](C)CCC)C(=O)NC(=O)NC1=O	Estrogen receptor (Homo sapiens)	False
N#CCc1ccccc1	Estrogen receptor (Homo sapiens)	False
c1ccc(C2CC2)c(OCC2=NCCN2)c1	Estrogen receptor (Homo sapiens)	False
Brc1ccc(Oc2ccccc2)cc1	Estrogen receptor (Homo sapiens)	False
NC(=O)CI	Estrogen receptor (Homo sapiens)	False

Each molecule tested received a call. Report the one for CC(C)=CCOc1c2occc2cc2ccc(=O)oc12 .
False

Let us now turn to Cn1cc[n+](C)c1 (tested in a mixture with another compound)
False

Let us now turn to CCCN(CC1CC1)c1c([N+](=O)[O-])cc(C(F)(F)F)cc1[N+](=O)[O-]
False

Let us now turn to O=C1NCN(c2ccccc2)C12CCN(CCCOc1ccc(F)cc1)CC2
True

Let us now turn to O=NN1CCNCC1
False
